System: COLO 205 colon
protocol.summary: NCI tumour cell line growth inhibition, 48 h; in the data active means GI50 below about 0.43 µM; inactive means the rest
Labels: active, inactive

molecule	assigned.class
C[As](C)SC1OC(CO)C(O)C1O (centres undefined)	inactive
COc1ccc(C(=O)c2cc(OC)c(C)c(OC)c2)cc1OC(=O)CCl	inactive
Cn1c(=O)c2c(nc(Nc3cc(=O)[nH]c(=O)[nH]3)n2Cc2ccccc2)n(C)c1=O	inactive
CC(C)=C[C@@H]1C[C@H](C)[C@H]2CC[C@H](C)C3=C2[C@](O)(OC3=O)[C@]1(C)O	inactive
O=C(OCc1ccc2cccc(O)c2n1)N1CCN(C(=O)c2cc3cc(F)ccc3[nH]2)CC1	inactive
CCOC(=O)Oc1c(OC)cc(C(=O)NC2CCc3cc(OC)c(OC)c(OC)c3-c3ccc(SC)c(=O)cc32)cc1OC (centres undefined)	active
COc1cc(C(=O)c2cc(C)c3[nH]c4ccc(Cl)cc4c3c2C)cc(OC)c1OC	inactive
C=C(F)C(=O)N1CCN(c2nc(OC[C@@H]3CCCN3C)nc3c2CCN(c2cccc4cccc(Cl)c24)C3)C[C@@H]1CC#N	inactive
O=C(c1ccccc1)c1cc(Cl)ccc1OCCCCN1CCN(CCCCOc2ccc(Cl)cc2C(=O)c2ccccc2)CC1	inactive

* * *

Recorded TGI, one value per entry.
System: MDA-MB-231 breast
protocol.summary: NCI tumour cell line growth inhibition, 48 h

molecule	target.under.test	inequality.symbol	TGI, µM
C[C@]12CC[C@H](O)CC1=CC[C@@H]1[C@@H]2CC[C@]2(C)C(=O)[C@@H](N3CCOCC3)C[C@@H]12	MDA-MB-231 breast	>	100
CC(C)(C)C(=O)OCC1CCC[N+]2(C)CCCCC12 (stereo not drawn)	MDA-MB-231 breast	>	100
CC(C)=C[C@@H]1C[C@H](C)[C@H]2CC[C@H](C)C3=C2[C@](O)(OC3=O)[C@]1(C)O	MDA-MB-231 breast	>	100
CC(SC(C)C(=O)N/N=C/c1cccc(Cl)c1)C(=O)N/N=C\c1cccc(Cl)c1 (stereo not drawn)	MDA-MB-231 breast	=	28.8
O=C(NCCCCCCNC(=O)c1cccc2ccccc12)Nc1cccc2ccccc12	MDA-MB-231 breast	>	100
O=[N+]([O-])c1ccccc1S(=O)(=O)c1cc(Cl)cc2c1NCCC2	MDA-MB-231 breast	>	100
COc1nc(C(=O)NNC(=O)c2nc(OC)c3ccccc3c2-c2ccccc2)c(-c2ccccc2)c2ccccc12	MDA-MB-231 breast	>	100
CC(=O)OC1Oc2ccccc2-c2oc(=O)c(-c3cc(=O)oc4cc(O)ccc34)cc21 (stereo not drawn)	MDA-MB-231 breast	=	81.5
Ic1ccc(Nc2nc3nonc3nc2Nc2ccc(I)cc2)cc1	MDA-MB-231 breast	=	0.641
CC1OC2CC(=O)OC2C2=C1C(=O)c1c(O)cccc1C2=O (stereo not drawn)	MDA-MB-231 breast	=	0.334
C=C1CC(c2ccc(OCCCN3C(=O)c4ccccc4C3=O)c(OC)c2)OC1=O (stereo not drawn)	MDA-MB-231 breast	=	30.5
O=S(=O)([O-])c1ccc2c(c1)-c1nc-2nc2[n-]c(nc3nc(nc4[n-]c(n1)c1ccc(S(=O)(=O)[O-])cc41)-c1cc(S(=O)(=O)[O-])ccc1-3)c1ccc(S(=O)(=O)[O-])cc21.[Cu+2].[Na+]	MDA-MB-231 breast	>	100
CCOC(=O)C1=CC(C)(C(=O)OCC)Nc2c(nc(OC)n(C)c2=O)N1 (stereo not drawn)	MDA-MB-231 breast	>	10
CCCCCCCCCC/C=C/CC(=O)SCCNC(=O)CCNC(=O)[C@@H](O)C(C)(C)COP(=O)(O)OP(=O)(O)OCC1OC(n2cnc3c(N)ncnc32)C(O)C1OP(=O)(O)O (stereo partly drawn)	MDA-MB-231 breast	>	10
Cc1ccc2c(n1)C(=O)c1[nH]c3ccccc3c1C2=O	MDA-MB-231 breast	=	73.6
Oc1ccc2ccccc2c1/C=C/c1ccc2c(Br)cc(Br)c(O)c2n1	MDA-MB-231 breast	=	23.4
COc1ccc2c(c1)CCC1C2CC[C@@]2(C)C1CC1=CC(COC(C)=O)C3C(=O)c4ccccc4C(=O)C3C12 (stereo partly drawn)	MDA-MB-231 breast	>	100
S=C(NCc1ccccc1)c1nc[nH]c1C(=S)NCc1ccccc1	MDA-MB-231 breast	=	22.3
